- Test system: Bacillus subtilis
- procedure text: cleaved RNA product abundance (RNA/gDNA barcode ratio) relative to median wild-type variant (ratio to wild type); higher = more accumulation of the downstream cleavage product
- condition details: experiment (reporter, strain, medium): exp 4a: truncated aprE reporter, strain BJT201 with 2% xylose (RNase J1 expressed); cleavage site: cggR-gapA (positions -7 to +36 mutated)
Entry flag: class 1 if cleaved RNA product abundance reaches 0.2; class 0 if it does not.

Check out these entries, answers already filled in.
ACAGACGAAGGAGCCGCAAAGAAGTTATTCAGGTATGAATAATCCCTCAATATAAATATCTCTCACTTATTTAAA
class 0
ACAGACGAAGGAGCCGCAAAGAAGTTATTATGGGACGAATAATCCCTCAATATAAATATCTCTCACTTATTTAAA
class 0
ACAGACGAAGGAGCCGCAAAGAAGTTATTAAAGGATGAATAATCCCTCATTATAAATATCTCTCACTTATTTAAA
class 1

In plain terms: is recorded cleaved RNA product abundance at least 0.2 for ACAGACGAAGGAGCCGCAAAGAAGTTATTAAGGGATCCATAATCCCTCAATATAAATATCTCTCACTTATTTAAA ?
class 1

In plain terms: is recorded cleaved RNA product abundance at least 0.2 for ACAGACGAAGGAGCCGCAAAGAAGTTATTAAGGGATGAGTAATCACTCAATATAAATATCTCTCACTTATTTAAA ?
class 1

In plain terms: is recorded cleaved RNA product abundance at least 0.2 for ACAGACGAAGGAGCCGCAAAGAAGTTATAAAGGGATGAATAATCCCTCCATATAAATATCTCTCACTTATTTAAA ?
class 1
